Below, each of the compounds is paired with its reported pKi value.
Molecular target: human CB1 receptor (Homo sapiens, UniProt P21554)
Sequence (P21554 whole entry): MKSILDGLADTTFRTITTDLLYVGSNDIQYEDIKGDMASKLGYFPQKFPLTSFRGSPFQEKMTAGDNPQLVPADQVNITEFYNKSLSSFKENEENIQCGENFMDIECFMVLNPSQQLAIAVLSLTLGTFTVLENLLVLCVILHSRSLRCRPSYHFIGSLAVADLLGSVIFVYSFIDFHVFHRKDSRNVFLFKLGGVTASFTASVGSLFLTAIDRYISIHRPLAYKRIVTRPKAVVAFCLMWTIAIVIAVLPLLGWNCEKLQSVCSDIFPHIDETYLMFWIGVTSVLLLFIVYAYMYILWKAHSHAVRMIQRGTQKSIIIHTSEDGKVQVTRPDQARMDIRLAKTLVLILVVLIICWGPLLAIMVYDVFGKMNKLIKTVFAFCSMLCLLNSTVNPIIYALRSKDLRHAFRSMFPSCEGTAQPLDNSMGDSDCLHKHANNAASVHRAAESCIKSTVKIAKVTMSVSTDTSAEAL
Test: Human CB1 receptor binding, [3H] CP-55,940 displacement on HEK cell membranes
Set-up: expressed in transfected cells; host or cells: HEK cells, doxycycline-induced; membrane preparation
Conditions: CB1 Ki
Units for pKi: none; it is -log10 of a concentration expressed in mol/L.

CC(C)(C)[C@H](NC(=O)c1nn(Cc2ccc(F)cc2)c2c(F)c(F)ccc12)C(N)=O: 9.77
CC(C)(C)[C@H](NC(=O)c1nn(Cc2ccc(C#N)cc2)c2c(F)cccc12)C(=O)NC[C@H]1C[C@@H]1CO: 7.36
CC(C)(C)[C@H](NC(=O)c1nn(Cc2ccc(F)cc2)c2ccccc12)C(=O)NC[C@H]1C[C@H]1CO: 8.88
CC(C)(C)[C@H](NC(=O)c1nn(Cc2ccc(C#N)cc2)c2ccccc12)C(=O)NC[C@H]1C[C@H]1CO: 6.90

Note pKi for the compound shown: CC(C)(C)[C@H](NC(=O)c1nn(Cc2ccc(C#N)cc2)c2c(F)cccc12)C(=O)NCC(F)(F)F
8.80

Note pKi for the compound shown: Cc1noc(CNC(=O)C(NC(=O)c2nn(Cc3ccc(C#N)cc3)c3ccccc23)C(C)(C)C)n1 (stereo not shown)
7.41
